- System: YAP/TAZ-TEAD transcription
- Protocol Summary: Reporter gene assay for measuring the inhibition of YAP/TAZ-TEAD transcription (TEAD-responsive element luciferase reporter in Hek293T cells)
- Format: cell-based
- Assay Setup: Homo sapiens, HEK-293T, 24 h, Hek293T cells transiently transfected with TEAD-responsive element luciferase reporter; 24 hours incubation
Assay Metric: IC50

1) CC(=O)NCC1Cc2c(C#N)cccc2N(c2ccc(C(F)(F)F)cc2)C1 (stereo not drawn): < 1000 nM
2) CCC(=O)NCC1CCc2ccccc2N1c1ccc(C(F)(F)F)cc1 (stereo not drawn): > 20000 nM
3) C=CC(=O)NC1Cc2ccccc2N(c2cccc(F)c2)C1 (stereo not drawn): < 1000 nM
4) C=CC(=O)NCC1Cc2ccccc2N(c2ccc(C(F)(F)F)cn2)C1 (stereo not drawn): < 1000 nM
5) C=CC(=O)NC1Cc2c(Cc3cccnc3)cccc2N(c2ccc(C(F)(F)F)cc2)C1 (stereo not drawn): < 1000 nM
6) C=CC(=O)NC1Cc2ccccc2N(c2ccc(S(F)(F)(F)(F)F)cc2)C1 (stereo not drawn): < 1000 nM
7) C=CC(=O)NC1Cc2ccccc2N(c2cccc(NC(C)=O)c2)C1 (stereo not drawn): 1000 to 20000 nM
8) C=CC(=O)NC1Cc2c(NC(=O)OC(C)(C)C)cccc2N(c2ccc(C(F)(F)F)cc2)C1 (stereo not drawn): < 1000 nM
9) CS(=O)(=O)NC1Cc2ccccc2N(c2ccc(C(F)(F)F)cc2)C1 (stereo not drawn): < 1000 nM
10) C=CC(=O)NCC1Cc2c(Cc3noc(=O)[nH]3)cccc2N(c2ccc(C(F)(F)F)cc2)C1 (stereo not drawn): < 1000 nM
11) C=CC(=O)NC1Cc2ccccc2N(c2cccc(-c3ccccc3)c2)C1 (stereo not drawn): 1000 to 20000 nM
12) C=CC(=O)NC1Cc2c(OC)cccc2N(c2ccc(C(F)(F)F)cc2)C1 (stereo not drawn): < 1000 nM
13) C=CC(=O)NC1Cc2ccccc2N(C2CCCCC2)C1 (stereo not drawn): < 1000 nM
14) CC(C)(C)OC(=O)NC1Cc2c(Br)cccc2N(c2ccc(C(F)(F)F)cc2)C1 (stereo not drawn): > 20000 nM
15) C=CC(=O)NCC1Cc2ccccc2N(Cc2cccc(C(F)(F)F)c2)C1 (stereo not drawn): < 1000 nM
16) C=CC(=O)NCC1Cc2ccccc2N(c2ccc(-c3ccccc3)cc2)C1 (stereo not drawn): < 1000 nM
17) C=CC(=O)NC1Cc2c(C(=O)NC#N)cccc2N(c2ccc(C(F)(F)F)cc2)C1 (stereo not drawn): > 20000 nM
18) C=CC(=O)NC1Cc2ccccc2N(C(=O)C2CCCCC2)C1 (stereo not drawn): > 20000 nM
19) CC(=O)NCC1Cc2c(C(=O)O)cccc2N(c2ccc(C(F)(F)F)cc2)C1 (stereo not drawn): > 20000 nM
20) C=CC(=O)NCC1Cc2c(C)cccc2N(c2ccc(C(F)(F)F)cc2)C1 (stereo not drawn): < 1000 nM
21) C=CC(=O)NC1Cc2ccccc2N(S(=O)(=O)c2cccc(C(F)(F)F)c2)C1 (stereo not drawn): < 1000 nM

---

- Tested on: YAP/TAZ-TEAD transcription
- Protocol Summary: Reporter gene assay for measuring the inhibition of YAP/TAZ-TEAD transcription (TEAD-responsive element luciferase reporter in Hek293T cells)
- Assay type: cell-based
- Assay Setup: Homo sapiens, HEK-293T, 24 h, Hek293T cells transiently transfected with TEAD-responsive element luciferase reporter; 24 hours incubation
pIC50: −log10 of the molar value.
Assay Metric: pIC50

1) C=CC(=O)NC1Cc2ccccc2N(c2cccc(F)c2F)C1 (centres unmarked): > 6.00
2) C=CC(=O)NC1Cc2ccccc2N(c2ccnc(C(F)(F)F)c2)C1 (centres unmarked): 4.70 to 6.00
3) C=CC(=O)NC1Cc2c(-c3noc(=O)[nH]3)cccc2N(c2ccc(C(F)(F)F)cc2)C1 (centres unmarked): < 4.70
4) C=CC(=O)NC1Cc2ccccc2N(c2cc(F)ccc2F)C1 (centres unmarked): > 6.00
5) CN(C)C/C=C/C(=O)NC1Cc2ccccc2N(c2ccc(C(F)(F)F)cc2)C1 (centres unmarked): 4.70 to 6.00
6) C=CC(=O)NC1Cc2ccccc2N(c2cc(F)cc(F)c2)C1 (centres unmarked): > 6.00
7) C=CC(=O)NC1Cc2ccccc2N(c2cccc(Cl)c2)C1 (centres unmarked): > 6.00
8) C=CC(=O)NC1Cc2c(NC(C)=O)cccc2N(c2ccc(C(F)(F)F)cc2)C1 (centres unmarked): > 6.00
9) C=CC(=O)NC1Cc2c(CN3CCOCC3)cccc2N(c2ccc(C(F)(F)F)cc2)C1 (centres unmarked): > 6.00
10) C=CC(=O)NC1Cc2ccccc2N(c2cccc(OC)c2)C1 (centres unmarked): > 6.00
11) C#CC(=O)NC1Cc2ccccc2N(c2ccc(C(F)(F)F)cc2)C1 (centres unmarked): > 6.00
12) C=CC(=O)NCC1CCc2ccccc2N1Cc1cccc(C(F)(F)F)c1 (centres unmarked): > 6.00
13) C=CC(=O)NC1Cc2ccccc2N(c2ccc(C(F)F)cc2)C1 (centres unmarked): > 6.00
14) C=CC(=O)NCC1Cc2c(C(=O)O)cccc2N(c2ccc(C(F)(F)F)cc2)C1 (centres unmarked): < 4.70
15) CCC(=O)NCC1Cc2c(Cc3ccccc3)cccc2N(c2ccc(C(F)(F)F)cc2)C1 (centres unmarked): > 6.00
16) CC(=O)NCC1Cc2c(N)cccc2N(c2ccc(C(F)(F)F)cc2)C1 (centres unmarked): > 6.00
17) C=CC(=O)NCC1Cc2ccccc2N(c2ccc(C=O)cc2)C1 (centres unmarked): > 6.00
18) C=CC(=O)NCC1Cc2c(C(=O)NS(C)(=O)=O)cccc2N(c2ccc(C(F)(F)F)cc2)C1 (centres unmarked): < 4.70
19) C=CC(=O)NCC1Cc2ccccc2N(C(=O)c2ccccc2)C1 (centres unmarked): > 6.00
20) C=CC(=O)NCC1Cc2ccccc2N(c2ccc(OC(F)F)cc2)C1 (centres unmarked): > 6.00
21) C=CC(=O)NC1Cc2c(C(=O)NS(C)(=O)=O)cccc2N(c2ccc(C(F)(F)F)cc2)C1 (centres unmarked): < 4.70
22) C=CC(=O)NC1Cc2ccccc2N(c2ccc(C(F)(F)F)cc2)C1 (single isomer, unassigned) [001-En1]: > 6.00
23) C=CC(=O)NC1Cc2ccccc2N(c2cccc(C(F)(F)F)c2)C1 (centres unmarked): > 6.00
24) C=CC(=O)NC1Cc2ccccc2N(c2ccc(SC(F)(F)F)cc2)C1 (centres unmarked): > 6.00
25) C=CC(=O)NCC1Cc2ccccc2N(c2ccc(F)c(F)c2)C1 (centres unmarked): > 6.00
26) C=CC(=O)NCC1Cc2ccccc2N(c2ccc(F)cc2F)C1 (centres unmarked): > 6.00
27) C=CC(=O)NC1Cc2ccccc2N(c2ccc(C)cc2C)C1 (centres unmarked): > 6.00
28) C=CC(=O)N(C)CC1Cc2ccccc2N(c2ccc(C(F)(F)F)cc2)C1 (centres unmarked): > 6.00
29) C=CC(=O)NC1Cc2ccccc2N(c2ccc3[nH]ccc3c2)C1 (centres unmarked): 4.70 to 6.00
30) C=CC(=O)NC1Cc2ccccc2N(c2ccc(C3CCCCC3)cc2)C1 (centres unmarked): > 6.00
31) C=CC(=O)NC1Cc2ccccc2N(c2cnc(C(F)(F)F)nc2)C1 (centres unmarked): > 6.00
32) C=CC(=O)NC1Cc2ccccc2N(Cc2ccc(C(F)(F)F)cc2)C1 (centres unmarked): > 6.00
33) C=CC(=O)NC1Cc2c(Cc3cccc(F)c3)cccc2N(c2ccc(C(F)(F)F)cc2)C1 (centres unmarked): > 6.00
34) CCC(=O)NCC1Cc2ccccc2N(c2ccc(C#N)cc2)C1 (centres unmarked): 4.70 to 6.00
35) C=CC(=O)NCC1Cc2c(Cc3ccccc3)cccc2N(c2ccc(C(F)(F)F)cc2)C1 (centres unmarked): > 6.00
